test: Degradation of nine organochlorine pesticides by gamma irradiation in samples of P. quinquefolium (GC analysis); type: physicochemical; conditions: 0 kGy gamma irradiation (control group), P. quinquefolium samples, mean of three
Reported remaining concentration of organochlorine pesticides in samples values for a set of compounds
Numeric answer only, unit ppm assumed.

Below, 3 compounds whose answers are already recorded.
COMPOUND: ClC1=C(Cl)C2(Cl)C3C(Cl)C=CC3C1(Cl)C2(Cl)Cl (stereo not drawn) [Heptachlor]
UNIT SYMBOL: ppm
RECORDED VALUE: 0.532
--
COMPOUND: O=S1OC[C@@H]2[C@H](CO1)[C@@]1(Cl)C(Cl)=C(Cl)[C@]2(Cl)C1(Cl)Cl (stereo partly drawn) [Endosulfan-1]
UNIT SYMBOL: ppm
RECORDED VALUE: 0.519
--
COMPOUND: Clc1ccc(C(c2ccc(Cl)cc2)C(Cl)(Cl)Cl)cc1 [p,p′-DDT]
UNIT SYMBOL: ppm
RECORDED VALUE: 0.520

-- ask Please report the recorded remaining concentration of organochlorine pesticides in samples for Clc1ccc(C(c2ccccc2Cl)C(Cl)Cl)cc1 (stereo not drawn) [o,p′-DDD] .
-- reply 0.476

-- ask Same question for Clc1ccc(C(c2ccc(Cl)cc2)C(Cl)Cl)cc1 [p,p′-DDD] please.
-- reply 0.502

-- ask Same question for ClC(Cl)=C(c1ccc(Cl)cc1)c1ccc(Cl)cc1 [p,p′-DDE] please.
-- reply 0.544

-- ask Same question for O=S1OC[C@@H]2[C@H](CO1)[C@]1(Cl)C(Cl)=C(Cl)[C@]2(Cl)C1(Cl)Cl (stereo partly drawn) [Endosulfan-2] please.
-- reply 0.515

-- ask Same question for Cl[C@H]1[C@H](Cl)[C@@H](Cl)[C@@H](Cl)[C@H](Cl)[C@H]1Cl [Lindane] please.
-- reply 0.549

====

test: Concentration of marker components (ginsenosides) in P. quinquefolium samples after gamma irradiation (HPLC); type: physicochemical; details: 0 kGy gamma irradiation (control group), mean ± SD, three repeats
Reported concentration of marker components of P. quinquefolium (ginsenoside) values for a set of molecules
Numeric answer only, unit mg/g assumed.

Below, 3 molecules whose answers are already recorded.
MOLECULE: CC(C)=CCC[C@](C)(O[C@@H]1O[C@H](CO)[C@@H](O)[C@H](O)[C@H]1O)[C@H]1CC[C@]2(C)[C@@H]1[C@H](O)C[C@@H]1[C@@]3(C)CC[C@H](O)C(C)(C)[C@@H]3[C@@H](O[C@@H]3O[C@H](CO)[C@@H](O)[C@H](O)[C@H]3O[C@@H]3O[C@@H](C)[C@H](O)[C@@H](O)[C@H]3O)C[C@]12C [Re, ginsenoside Re]
RECORDED VALUE: 15.98
//
MOLECULE: CC(C)=CCC[C@](C)(O[C@@H]1O[C@H](CO)[C@@H](O)[C@H](O)[C@H]1O)[C@H]1CC[C@]2(C)[C@@H]1[C@H](O)C[C@@H]1[C@@]3(C)CC[C@H](O)C(C)(C)[C@@H]3[C@@H](O[C@@H]3O[C@H](CO)[C@@H](O)[C@H](O)[C@H]3O)C[C@]12C [Rg1, ginsenoside Rg1]
RECORDED VALUE: 1.56
//
MOLECULE: CC(C)=CCC[C@](C)(O[C@@H]1O[C@H](CO)[C@@H](O)[C@H](O)[C@H]1O)[C@H]1CC[C@]2(C)[C@@H]1[C@H](O)C[C@@H]1[C@@]3(C)CC[C@H](O[C@@H]4O[C@H](CO)[C@@H](O)[C@H](O)[C@H]4O[C@@H]4O[C@H](CO)[C@@H](O)[C@H](O)[C@H]4O)C(C)(C)[C@@H]3CC[C@]12C [Rd, ginsenoside Rd]
RECORDED VALUE: 9.02

Now for another entry.
-- ask Please report the recorded concentration of marker components of P. quinquefolium (ginsenoside) for CC(C)=CCC[C@](C)(O[C@@H]1O[C@H](CO[C@@H]2O[C@@H](CO)[C@H](O)[C@H]2O)[C@@H](O)[C@H](O)[C@H]1O)[C@H]1CC[C@]2(C)[C@@H]1[C@H](O)C[C@@H]1[C@@]3(C)CC[C@H](O[C@@H]4O[C@H](CO)[C@@H](O)[C@H](O)[C@H]4O[C@@H]4O[C@H](CO)[C@@H](O)[C@H](O)[C@H]4O)C(C)(C)[C@@H]3CC[C@]12C [Rc, ginsenoside Rc] .
-- reply 16.12
